FYI, the data here is from paper PMC3456924.

assay.protocol: Tissue distribution (liver, kidney, lung) after a single IV injection
Format: in vivo, BALB/C mice
experimental.setup: female, BALB/C, mouse; liver; single IV; read-out: time of maximum concentration in liver postinjection (converted)
property.measured: Tmax (min)
Quick reminder: number only, in min, skip the unit.

Inquiry: Identify measured Tmax corresponding to CN(CCCNC(=O)c1cccc(C(=O)O)c1)CCCNC(=O)c1cc(NC(=O)c2cc(NC(=O)c3cc(NC(=O)c4nc(NC(=O)[C@H](N)CCNC(=O)c5cc(NC(=O)c6cc(NC(=O)c7cc(NC(=O)c8nccn8C)cn7C)cn6C)cn5C)cn4C)cn3C)cn2C)cn1C [Polyamide 1]
Reply text: 5

* * *

assay.protocol: Plasma pharmacokinetics after a single IV tail vein injection
Assay type: in vivo, BALB/C mice
experimental.setup: female, BALB/C, mouse, plasma, iv, plasma; compartmental analysis; single IV, 7.5 mg/kg (1), 5 mg/kg (2); read-out: t 1/2 β (terminal) (converted)
Method: Pyrrole–imidazole polyamide pharmacokinetic studies were performed in 10- to 12-week-old female BALB/C mice (Charles River). Polyamides were solubilized in PBS (1) or PBS/DMSO (2) and administered via intravenous (IV) tail vein injection at concentrations of 7.5 and 5 mg/kg, respectively. […] Concentrations of polyamides 1 and 2 were analyzed by LC/MS/MS using a Waters Acquity UPLC system (Milford, MA, USA) interfaced with a Waters Quattro Premier XE Mass Spectrometer. […]
property.measured: half-life (h)
Give the number; h is assumed, so skip it.

Inquiry: Quickly give me recorded half-life for CN(CCCNC(=O)c1cccc(C(=O)O)c1)CCCNC(=O)c1cc(NC(=O)c2cc(NC(=O)c3cc(NC(=O)c4nc(NC(=O)[C@H](N)CCNC(=O)c5cc(NC(=O)c6cc(NC(=O)c7cc(NC(=O)c8nccn8C)cn7C)cn6C)cn5C)cn4C)cn3C)cn2C)cn1C [Polyamide 1]
Reply text: 4.6

* * *

assay.protocol: Plasma pharmacokinetics after a single IV tail vein injection
Type: in vivo, BALB/C mice
experimental.setup: female, BALB/C, mouse, plasma, iv, plasma; compartmental analysis; single IV, 7.5 mg/kg (1), 5 mg/kg (2); read-out: t 1/2 α (initial) (converted)
Description: Pyrrole–imidazole polyamide pharmacokinetic studies were performed in 10- to 12-week-old female BALB/C mice (Charles River). Polyamides were solubilized in PBS (1) or PBS/DMSO (2) and administered via intravenous (IV) tail vein injection at concentrations of 7.5 and 5 mg/kg, respectively. […] Concentrations of polyamides 1 and 2 were analyzed by LC/MS/MS using a Waters Acquity UPLC system (Milford, MA, USA) interfaced with a Waters Quattro Premier XE Mass Spectrometer. […]
property.measured: half-life (min)
Kindly answer with a numeric value in min, unit omitted.

Inquiry: Quote half-life reported for CN(CCCNC(=O)c1cccc(C(=O)O)c1)CCCNC(=O)c1cc(NC(=O)c2cc(NC(=O)c3cc(NC(=O)c4nc(NC(=O)[C@H](N)CCNC(=O)c5cc(NC(=O)c6cc(NC(=O)c7cc(NC(=O)c8nccn8C)cn7C)cn6C)cn5C)cn4C)cn3C)cn2C)cn1C [Polyamide 1] please.
Reply text: 30

* * *

assay.protocol: Plasma pharmacokinetics after a single IV tail vein injection
Assay type: in vivo, BALB/C mice
experimental.setup: female, BALB/C, mouse, plasma, iv; compartmental analysis; single IV, 7.5 mg/kg (1), 5 mg/kg (2)
property.measured: AUC(0-inf) (ng·h/mL)
Answer in ng·h/mL, number only, no unit symbol.

Inquiry: Return AUC(0-inf) for the following compound: CN(CCCNC(=O)c1cccc(C(=O)O)c1)CCCNC(=O)c1cc(NC(=O)c2cc(NC(=O)c3cc(NC(=O)c4nc(NC(=O)[C@H](N)CCNC(=O)c5cc(NC(=O)c6cc(NC(=O)c7cc(NC(=O)c8nccn8C)cn7C)cn6C)cn5C)cn4C)cn3C)cn2C)cn1C [Polyamide 1]
Reply text: 67500

* * *

assay.protocol: Tissue distribution (liver, kidney, lung) after a single IV injection
Format: in vivo, BALB/C mice
experimental.setup: female, BALB/C, mouse; liver; experiment endpoint (24 h); single IV; read-out: concentration remaining in the liver at the experiment endpoint
As shown below, each of these molecules has a reported concentration at 24 h value.
Respond numerically; units are ng/g and should not be typed.

# molecule, concentration at 24 h, ng/g
measured = [
    ("CC(=O)N[C@@H](CNC(=O)c1cc(NC(=O)c2cc(NC(=O)c3cc(NC(=O)c4nccn4C)cn3C)cn2C)cn1C)CC(=O)Nc1cn(C)c(C(=O)Nc2cc(C(=O)Nc3cc(C(=O)Nc4cc(C(=O)NCCCN(C)CCCNC(=O)c5cccc(C(=O)O)c5)n(C)c4)n(C)c3)n(C)c2)n1 [Polyamide 2]", 17400),
]

Now look at this one.
Inquiry: Determine its reported concentration at 24 h: CN(CCCNC(=O)c1cccc(C(=O)O)c1)CCCNC(=O)c1cc(NC(=O)c2cc(NC(=O)c3cc(NC(=O)c4nc(NC(=O)[C@H](N)CCNC(=O)c5cc(NC(=O)c6cc(NC(=O)c7cc(NC(=O)c8nccn8C)cn7C)cn6C)cn5C)cn4C)cn3C)cn2C)cn1C [Polyamide 1]
Reply text: 4800

* * *

assay.protocol: Plasma pharmacokinetics after a single IV tail vein injection
Type: in vivo, BALB/C mice
experimental.setup: female, BALB/C, mouse, plasma, iv; compartmental analysis (2-compartment model); single IV, 7.5 mg/kg (1), 5 mg/kg (2)
Procedure: Pyrrole–imidazole polyamide pharmacokinetic studies were performed in 10- to 12-week-old female BALB/C mice (Charles River). Polyamides were solubilized in PBS (1) or PBS/DMSO (2) and administered via intravenous (IV) tail vein injection at concentrations of 7.5 and 5 mg/kg, respectively. […] Concentrations of polyamides 1 and 2 were analyzed by LC/MS/MS using a Waters Acquity UPLC system (Milford, MA, USA) interfaced with a Waters Quattro Premier XE Mass Spectrometer. […]
property.measured: Cmax (ng/mL)
The reply should contain only the number, in ng/mL.

Inquiry: Specify Cmax for CN(CCCNC(=O)c1cccc(C(=O)O)c1)CCCNC(=O)c1cc(NC(=O)c2cc(NC(=O)c3cc(NC(=O)c4nc(NC(=O)[C@H](N)CCNC(=O)c5cc(NC(=O)c6cc(NC(=O)c7cc(NC(=O)c8nccn8C)cn7C)cn6C)cn5C)cn4C)cn3C)cn2C)cn1C [Polyamide 1] and stop.
Reply text: 43600

* * *

assay.protocol: Tissue distribution (liver, kidney, lung) after a single IV injection
Format: in vivo, BALB/C mice
experimental.setup: female, BALB/C, mouse; lung; single IV; read-out: time of peak concentration in lung following injection (converted)
property.measured: Tmax (min)
// note: answer is a bare numeric in min

Inquiry: Annotate the compound CN(CCCNC(=O)c1cccc(C(=O)O)c1)CCCNC(=O)c1cc(NC(=O)c2cc(NC(=O)c3cc(NC(=O)c4nc(NC(=O)[C@H](N)CCNC(=O)c5cc(NC(=O)c6cc(NC(=O)c7cc(NC(=O)c8nccn8C)cn7C)cn6C)cn5C)cn4C)cn3C)cn2C)cn1C [Polyamide 1] with its measured Tmax.
Reply text: 15

* * *

assay.protocol: Plasma pharmacokinetics after a single IV tail vein injection
Type: in vivo, BALB/C mice
experimental.setup: female, BALB/C, mouse, plasma, iv; compartmental analysis; single IV, 7.5 mg/kg (1), 5 mg/kg (2)
property.measured: clearance (mL/min)
Enter your answer as a number in mL/min; do not include the unit.

Inquiry: Give clearance for the following molecule: CN(CCCNC(=O)c1cccc(C(=O)O)c1)CCCNC(=O)c1cc(NC(=O)c2cc(NC(=O)c3cc(NC(=O)c4nc(NC(=O)[C@H](N)CCNC(=O)c5cc(NC(=O)c6cc(NC(=O)c7cc(NC(=O)c8nccn8C)cn7C)cn6C)cn5C)cn4C)cn3C)cn2C)cn1C [Polyamide 1]
Reply text: 0.035

* * *

assay.protocol: Plasma pharmacokinetics after a single IV tail vein injection
Type: in vivo, BALB/C mice
experimental.setup: female, BALB/C, mouse, plasma, iv; non-compartmental analysis; single IV, 7.5 mg/kg (1), 5 mg/kg (2)
property.measured: AUC(0-inf) (ng·h/mL)
Give a bare numeral; the unit ng·h/mL is implied.

Inquiry: Return AUC(0-inf) (reported value) for this molecule: CN(CCCNC(=O)c1cccc(C(=O)O)c1)CCCNC(=O)c1cc(NC(=O)c2cc(NC(=O)c3cc(NC(=O)c4nc(NC(=O)[C@H](N)CCNC(=O)c5cc(NC(=O)c6cc(NC(=O)c7cc(NC(=O)c8nccn8C)cn7C)cn6C)cn5C)cn4C)cn3C)cn2C)cn1C [Polyamide 1]
Reply text: 77400

* * *

assay.protocol: Plasma pharmacokinetics after a single IV tail vein injection
Type: in vivo, BALB/C mice
experimental.setup: female, BALB/C, mouse, plasma; 24 h after single IV, 7.5 mg/kg (1), 5 mg/kg (2); read-out: average plasma concentration 24 h postinjection
property.measured: concentration at 24 h (ng/mL)
Just the number in ng/mL, nothing appended.

# compound, unit.name, val
measured = [
    ("CN(CCCNC(=O)c1cccc(C(=O)O)c1)CCCNC(=O)c1cc(NC(=O)c2cc(NC(=O)c3cc(NC(=O)c4nc(NC(=O)[C@H](N)CCNC(=O)c5cc(NC(=O)c6cc(NC(=O)c7cc(NC(=O)c8nccn8C)cn7C)cn6C)cn5C)cn4C)cn3C)cn2C)cn1C [Polyamide 1]", "ng/mL", 210),
]

Inquiry: Give reported concentration at 24 h value for CC(=O)N[C@@H](CNC(=O)c1cc(NC(=O)c2cc(NC(=O)c3cc(NC(=O)c4nccn4C)cn3C)cn2C)cn1C)CC(=O)Nc1cn(C)c(C(=O)Nc2cc(C(=O)Nc3cc(C(=O)Nc4cc(C(=O)NCCCN(C)CCCNC(=O)c5cccc(C(=O)O)c5)n(C)c4)n(C)c3)n(C)c2)n1 [Polyamide 2]
Reply text: 490
